- target.of.assay: hNCC(WT) (Homo sapiens)
- Construct: expressed in transfected cells
- Sequence (P55017 whole entry): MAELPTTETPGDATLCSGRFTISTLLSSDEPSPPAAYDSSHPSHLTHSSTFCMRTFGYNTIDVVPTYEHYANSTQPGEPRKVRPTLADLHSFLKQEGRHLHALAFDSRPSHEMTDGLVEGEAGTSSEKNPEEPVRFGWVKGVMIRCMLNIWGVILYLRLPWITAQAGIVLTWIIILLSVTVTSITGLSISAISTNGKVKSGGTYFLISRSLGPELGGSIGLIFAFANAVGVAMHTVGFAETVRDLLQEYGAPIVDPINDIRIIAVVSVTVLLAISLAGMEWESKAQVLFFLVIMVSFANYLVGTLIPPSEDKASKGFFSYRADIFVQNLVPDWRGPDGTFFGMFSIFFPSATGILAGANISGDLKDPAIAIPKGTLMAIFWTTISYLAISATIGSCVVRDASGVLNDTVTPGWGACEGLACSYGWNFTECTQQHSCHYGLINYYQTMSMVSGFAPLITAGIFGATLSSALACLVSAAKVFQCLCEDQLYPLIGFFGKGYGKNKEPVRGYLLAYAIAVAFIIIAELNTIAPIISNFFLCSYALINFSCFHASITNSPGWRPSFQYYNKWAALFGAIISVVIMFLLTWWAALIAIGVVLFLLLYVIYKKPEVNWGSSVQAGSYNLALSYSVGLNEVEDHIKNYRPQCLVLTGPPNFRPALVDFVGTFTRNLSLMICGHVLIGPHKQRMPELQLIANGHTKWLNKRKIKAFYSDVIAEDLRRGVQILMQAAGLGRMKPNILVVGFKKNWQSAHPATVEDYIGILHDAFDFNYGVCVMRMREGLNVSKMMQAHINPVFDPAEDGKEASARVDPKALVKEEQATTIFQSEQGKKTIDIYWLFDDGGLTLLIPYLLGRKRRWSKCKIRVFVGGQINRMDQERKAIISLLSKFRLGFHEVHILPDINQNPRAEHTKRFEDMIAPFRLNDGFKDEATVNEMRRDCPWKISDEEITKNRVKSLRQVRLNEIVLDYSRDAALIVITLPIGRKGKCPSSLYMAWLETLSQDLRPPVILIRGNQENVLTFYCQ
- method.summary: 125I- uptake assay, HEK293S cells stably expressing hNCC(WT)
- Assay type: cell-based
- conditions.used: as quoted in reviewer comment on the earlier manuscript version
reported.metric: pIC50
Please note pIC50 is a logarithmic value: minus log10 of concentration in mol/L. Answer with that number alone.

[Q] Fill in: pIC50 of CC1Cc2ccccc2N1NC(=O)c1ccc(Cl)c(S(N)(=O)=O)c1 (stereo not shown) [indapamide] is ___
[A] 8.03

====

- target.of.assay: hNCC(N149A) (Homo sapiens, UniProt P55017, N149A)
- Sequence (P55017 whole entry N149A): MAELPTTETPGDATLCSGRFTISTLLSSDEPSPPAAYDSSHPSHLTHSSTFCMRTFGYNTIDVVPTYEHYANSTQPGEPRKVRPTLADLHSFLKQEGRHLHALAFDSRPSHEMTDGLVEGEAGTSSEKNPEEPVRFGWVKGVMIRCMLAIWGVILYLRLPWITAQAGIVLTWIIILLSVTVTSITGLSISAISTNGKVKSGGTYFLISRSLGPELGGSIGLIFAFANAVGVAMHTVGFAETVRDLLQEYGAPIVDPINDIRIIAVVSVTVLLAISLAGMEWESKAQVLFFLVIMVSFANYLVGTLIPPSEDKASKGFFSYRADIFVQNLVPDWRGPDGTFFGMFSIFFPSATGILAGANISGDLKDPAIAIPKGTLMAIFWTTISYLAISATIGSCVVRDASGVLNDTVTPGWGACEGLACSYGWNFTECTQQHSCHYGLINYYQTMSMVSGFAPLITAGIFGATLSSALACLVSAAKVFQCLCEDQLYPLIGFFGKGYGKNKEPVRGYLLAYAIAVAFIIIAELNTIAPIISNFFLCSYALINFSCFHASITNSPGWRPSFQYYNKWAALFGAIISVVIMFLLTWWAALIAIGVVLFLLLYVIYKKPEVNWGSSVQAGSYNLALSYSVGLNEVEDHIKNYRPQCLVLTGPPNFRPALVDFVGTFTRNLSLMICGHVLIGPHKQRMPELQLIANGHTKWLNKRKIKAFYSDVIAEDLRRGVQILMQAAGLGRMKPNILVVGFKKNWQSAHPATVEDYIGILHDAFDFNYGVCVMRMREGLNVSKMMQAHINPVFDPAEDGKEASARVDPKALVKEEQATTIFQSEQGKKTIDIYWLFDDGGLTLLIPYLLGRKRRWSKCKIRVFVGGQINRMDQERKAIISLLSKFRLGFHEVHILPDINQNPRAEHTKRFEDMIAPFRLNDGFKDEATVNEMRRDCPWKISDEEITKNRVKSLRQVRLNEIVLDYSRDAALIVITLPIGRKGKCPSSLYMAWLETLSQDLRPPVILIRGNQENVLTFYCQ
- method.summary: 125I- uptake assay, hNCC(N149A) variant
- conditions.used: iodide uptake, N149A substitution
reported.metric: IC50 (µM)
Reply numerically in µM, unit not repeated.

# molecule, unit.annotation, IC50
records = [
    ("NS(=O)(=O)c1cc(C2(O)NC(=O)c3ccccc32)ccc1Cl (centres unmarked) [chlorthalidone]", "µM", 2.2),
]

We now examine a further molecule.
[Q] For the molecule shown here, CC1Cc2ccccc2N1NC(=O)c1ccc(Cl)c(S(N)(=O)=O)c1 (centres unmarked) [indapamide] , give the reported IC50.
[A] 0.34
